Settings: Crystal; DTA
Decision: Normal melting temperature beneath 200 °C gives MET; Normal melting temperature meeting or exceeding 200 °C gives NOT MET.

Known results for compounds:
Ask: Consider Cc1cccc(Nc2ccccc2C(=O)O)c1C . Does its Normal melting temperature lie strictly below 200 °C?
Reply: NOT MET

Ask: Consider CC(C)NCC(O)COc1ccc(CC(N)=O)cc1 (stereo unspecified) [2-(4-(2-hydroxy-3-(isopropylamino)propoxy)phenyl)acetamide] . Does its Normal melting temperature lie strictly below 200 °C?
Reply: MET

Ask: Consider C[C@]12CC[C@@H]3c4ccc(O)cc4CC[C@H]3[C@@H]1CCC2=O [3-hydroxy-1,3,5(10)-estratrien-17-one] . Does its Normal melting temperature lie strictly below 200 °C?
Reply: NOT MET

Ask: Consider c1ccc(-c2ccc(C(c3ccccc3)n3ccnc3)cc2)cc1 (stereo unspecified) [1-([1,1'-biphenyl]-4-yl(phenyl)methyl)-1H-imidazole] . Does its Normal melting temperature lie strictly below 200 °C?
Reply: MET

Ask: Consider CS(=O)(=O)Nc1ccc([N+](=O)[O-])cc1Oc1ccccc1 [nimesulide] . Does its Normal melting temperature lie strictly below 200 °C?
Reply: MET

---
Ask: Consider CC(C)(C)NCC(O)COc1cccc2c1CC(O)C(O)C2 (stereo unspecified) . Does its Normal melting temperature lie strictly below 200 °C?
Reply: MET
